Value source: patent US6608082B1

Assay Target: MCR-4 (Homo sapiens, UniProt P32245)
Construct: expressed in transfected cells; host or cells: HEK 293
Sequence (P32245 whole entry): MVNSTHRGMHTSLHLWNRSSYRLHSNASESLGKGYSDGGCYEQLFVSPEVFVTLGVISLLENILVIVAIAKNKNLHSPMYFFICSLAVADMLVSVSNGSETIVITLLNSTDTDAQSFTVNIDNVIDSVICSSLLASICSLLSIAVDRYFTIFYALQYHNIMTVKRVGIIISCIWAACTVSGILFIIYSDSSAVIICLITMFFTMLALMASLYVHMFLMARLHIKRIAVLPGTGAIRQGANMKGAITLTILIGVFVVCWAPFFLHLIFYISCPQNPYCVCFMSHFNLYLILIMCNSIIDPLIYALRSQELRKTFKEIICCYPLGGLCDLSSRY
Assay Name: Melanocortin receptor binding assay, competition with 125I-HP 467, HEK 293 cells expressing hMCR-4
Cond: competition with 125I-HP 467, HEK 293 cells expressing MCR-4; read-out: MC-4 IC50
Reported Endpoint: IC50 (nM)

[[record]]
compound = "NCC(CCCCN1Cc2ccccc2C(CNCCc2ccccc2)C1c1ccc(-c2ccccc2)cc1)N1CCCC1 (centres unmarked)"
numeric_value = 1270

[[record]]
compound = "CCNc1ccc(C2C(CNC3CCCCC3)c3ccccc3CN2CCCC[C@@H](CN)NCCC2CCCCC2)cc1 (some centres unmarked)"
numeric_value = 1110

[[record]]
compound = "COCCNC(CN)CCCN1Cc2ccccc2C(CN)C1c1ccc(-c2ccccc2)cc1 (centres unmarked)"
numeric_value = 1460

[[record]]
compound = "CCCCNc1ccc(C2C(CNCCc3ccccc3)c3ccccc3CN2CCCCC(CN)NCCC2CCCCC2)cc1 (centres unmarked)"
numeric_value = 760

[[record]]
compound = "CCCCNc1ccc(C2C(CN)c3ccccc3CN2CCCCC(CN)NCCN)cc1 (centres unmarked)"
numeric_value = 1450

[[record]]
compound = "CNC(CN)CCCCN1Cc2ccccc2C(CNC2CCCCC2)C1c1ccc(NCC(C)C)cc1 (centres unmarked)"
numeric_value = 21000

[[record]]
compound = "CCCCNC(CN)CCCCN1Cc2ccccc2C(CN)C1c1ccc(-c2ccccc2)cc1 (centres unmarked)"
numeric_value = 1730

[[record]]
compound = "CCCNc1ccc(C2C(CNC3CCCCC3)c3ccccc3CN2CCCCC(CN)NC)cc1 (centres unmarked)"
numeric_value = 19800


---

Assay Target: MCR-4 (Homo sapiens)
Construct: expressed in transfected cells; host or cells: HEK 293
Assay Name: Melanocortin receptor binding assay, competition with 125I-HP 467, HEK 293 cells expressing hMCR-4
Cond: inhibition of binding of 125I-HP 467, HEK 293 cells expressing MCR-4; read-out: MC-4 IC50
Reported Endpoint: IC50

[[record]]
compound = "COc1ccc(CNC(CN)CCCCN2Cc3ccccc3C(CNCCc3ccccc3)C2c2cc(C(F)(F)F)cc(C(F)(F)F)c2)cc1 (centres unmarked)"
result = "2.81 µM"

[[record]]
compound = "CCNc1ccc(C2C(CNCCc3ccccc3)c3ccccc3CN2CCCC(CN)NCCCCN(CC)CC)cc1 (centres unmarked)"
result = "14.4 µM"

[[record]]
compound = "CCNc1ccc(C2C(CNCCc3ccccc3)c3ccccc3CN2CCCC(CN)NCCc2ccc(Br)cc2)cc1 (centres unmarked)"
result = "0.66 µM"

[[record]]
compound = "CCNc1ccc(C2C(CN)c3ccccc3CN2CCCC(CN)NCCCCNC(C)(C)C)cc1 (centres unmarked)"
result = "4.32 µM"

[[record]]
compound = "CCNc1ccc(C2C(CNCCc3ccccc3)c3ccccc3CN2CCCC(CN)NCC)cc1 (centres unmarked)"
result = "0.52 µM"

[[record]]
compound = "NCC(CCCN1Cc2ccccc2C(CO)C1c1ccc(O)cc1)NCCC1CCCCC1 (centres unmarked)"
result = "0.94 µM"

[[record]]
compound = "CCNc1ccc(C2C(CN)c3ccccc3CN2CCC[C@@H](CN)NCCCCOc2ccccc2)cc1 (some centres unmarked)"
result = "7.77 µM"

[[record]]
compound = "CCNc1ccc(C2C(CN)c3ccccc3CN2CCCC(CN)NCC2CC2CNCc2ccccc2)cc1 (centres unmarked)"
result = "5.01 µM"

